Would you kindly list IC50 for each of these molecules?
target: JAK1 (recombinant purified GST-tagged catalytic domain) (Homo sapiens (Human)); assay: biochemical;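 note: biochemical assay with HTRF read-out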
Sequence (P23458 875-1153): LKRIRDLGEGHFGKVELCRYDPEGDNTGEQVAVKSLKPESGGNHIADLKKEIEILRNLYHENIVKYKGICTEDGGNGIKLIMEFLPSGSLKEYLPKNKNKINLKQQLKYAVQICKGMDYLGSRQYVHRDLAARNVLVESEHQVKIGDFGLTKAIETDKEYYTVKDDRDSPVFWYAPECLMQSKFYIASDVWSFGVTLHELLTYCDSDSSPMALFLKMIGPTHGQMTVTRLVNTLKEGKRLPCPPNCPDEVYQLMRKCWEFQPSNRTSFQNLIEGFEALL
Quick reminder: number only, in nM, skip the unit.

// lookup IC50 for N#C[C@H]1C[C@@H](N[C@H](C2CC2)C(F)(F)F)CC[C@@H]1n1cc(C(N)=O)c(Nc2ccc(C(F)(F)F)cc2)n1 (single isomer, unassigned)
2

// lookup IC50 for CN[C@H]1CCC(n2cc(C(N)=O)c(Nc3ccc(S(=O)(=O)C(F)(F)F)cc3)n2)[C@@H](C#N)C1 (mixture of isomers)
3

// lookup IC50 for CC(C)(O)C1CN(C(=O)[C@H]2CC[C@H](n3cc(C(N)=O)c(Nc4ccc(Cl)cc4)n3)[C@@H](C#N)C2)C1 (single isomer, unassigned)
30

// lookup IC50 for N#C[C@@H]1C[C@H](C(=O)N2CC(F)C2)CC[C@H]1n1cc(C(N)=O)c(Nc2ccc(Cl)cc2)n1 (single isomer, unassigned)
9

// lookup IC50 for CN(C)[C@@H]1CC[C@H](n2cc(C(N)=O)c(Nc3ccnc(F)c3)n2)[C@@H](C#N)C1 (single isomer, unassigned)
12

// lookup IC50 for N#C[C@H]1C[C@@H](C(=O)N2CCC(F)(F)C2)CC[C@@H]1n1cc(C(N)=O)c(Nc2ccc(Cl)cc2)n1 (single isomer, unassigned)
3

// lookup IC50 for C[C@H](N[C@H]1CC[C@H](n2cc(C(N)=O)c(Nc3ccc(OC(F)(F)F)cc3)n2)[C@@H](C#N)C1)C1CC1 (single isomer, unassigned)
1

// lookup IC50 for N#C[C@H]1CCCCC1n1cc(C(N)=O)c(Nc2ccc3c(c2)C=CS3(=O)=O)n1 (mixture of isomers)
0.45

// lookup IC50 for N#C[C@H]1CC(NCC2CCS(=O)(=O)C2)CC[C@@H]1n1cc(C(N)=O)c(Nc2ccc(S(=O)(=O)C(F)(F)F)cc2)n1 (single isomer, unassigned)
0.4

// lookup IC50 for N#C[C@H]1CCCC[C@@H]1n1cc(C(N)=O)c(Nc2ccc(Cl)c(Cl)c2)n1 (single isomer, unassigned)
17

// lookup IC50 for CN(C)[C@H]1CC[C@H](n2cc(C(N)=O)c(Nc3ccc(Cl)cc3)n2)[C@@H](C#N)C1 (single isomer, unassigned)
0.55

---

target: JAK2 (recombinant purified GST-tagged catalytic domain) (Homo sapiens (Human), UniProt O60674); experiment: biochemical;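 note: biochemical JAK kinase assay with HTRF detection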
Sequence (O60674 849-1124): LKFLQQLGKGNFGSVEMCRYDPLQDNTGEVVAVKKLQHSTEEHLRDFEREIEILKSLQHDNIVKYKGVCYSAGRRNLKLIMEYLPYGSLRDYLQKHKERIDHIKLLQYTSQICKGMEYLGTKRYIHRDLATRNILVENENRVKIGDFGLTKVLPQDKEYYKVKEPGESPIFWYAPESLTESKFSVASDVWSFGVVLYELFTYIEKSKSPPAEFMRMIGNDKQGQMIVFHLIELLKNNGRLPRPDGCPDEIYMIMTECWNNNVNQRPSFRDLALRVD
OBSERVED PROPERTY: IC50 (µM)
Quick reminder: number only, in µM, skip the unit.

// lookup IC50 for CNC(=O)O[C@@H]1CCC(n2cc(C(N)=O)c(Nc3ccc(F)cc3)n2)[C@@H](C#N)C1 (mixture of isomers) [Example 34-6]
0.012

// lookup IC50 for N#C[C@H]1C[C@@H](N2CCC2)CC[C@@H]1n1cc(C(N)=O)c(Nc2ccc([C@H](O)C(F)(F)F)cc2)n1 (single isomer, unassigned) [Example 28-47]
0.011

// lookup IC50 for N#C[C@@H]1CCCCC1n1cc(C(N)=O)c(Nc2ccccc2)n1 (mixture of isomers) [Example 1-3]
0.138

// lookup IC50 for N#C[C@H]1CC(N2CC[C@@H](F)C2)CC[C@@H]1n1cc(C(N)=O)c(Nc2ccc(S(=O)(=O)C(F)(F)F)cc2)n1 (single isomer, unassigned) [Example 28-159]
0.018

// lookup IC50 for CC1(N[C@H]2CCC(n3cc(C(N)=O)c(Nc4ccccc4)n3)[C@@H](C#N)C2)COC1 (single isomer, unassigned) [Example 28-230]
0.024

// lookup IC50 for N#C[C@H]1CCCC[C@@H]1n1cc(C(N)=O)c(Nc2ccc(S(=O)(=O)Nc3ccc(C(F)(F)F)cc3)cc2)n1 (single isomer, unassigned) [Example 17-95]
0.031

The origin of these recorded values is patent US8962608B2.
